Listed here are compounds together with their documented IC50.
test system: Hs-578T; experiment: Cytotoxicity against human Hs578T cells after 72 hrs by MTT assay; format: functional, cell-based

structure_smiles: COc1ccc(/C=C\c2cc(OC)c(OC)c(OC)c2)cc1O
relation: =
IC50 (µM): 0.00136

structure_smiles: COc1cc(C(=O)Nc2c(C(=O)c3cccs3)[nH]c3cc(C)ccc23)cc(OC)c1OC
relation: >
IC50 (µM): 100

structure_smiles: COc1cccc(C(=O)c2[nH]c3cc(Cl)ccc3c2NC(=O)c2cc(OC)c(OC)c(OC)c2)c1
relation: >
IC50 (µM): 100

structure_smiles: COc1cc(C(=O)Nc2c(C(=O)c3ccc(C)cc3)[nH]c3cc(Cl)ccc23)cc(OC)c1OC
relation: =
IC50 (µM): 14.2

structure_smiles: COc1ccc(C(=O)c2[nH]c3cc(Cl)ccc3c2NC(=O)c2cc(OC)c(OC)c(OC)c2)cc1
relation: =
IC50 (µM): 15.9

structure_smiles: COc1cc(C(=O)Nc2c(C(=O)c3ccc(F)cc3)[nH]c3cc(Cl)ccc23)cc(OC)c1OC
relation: >
IC50 (µM): 100

structure_smiles: COc1ccc(C(=O)c2[nH]c3cc(OC)ccc3c2NC(=O)c2cc(OC)c(OC)c(OC)c2)cc1
relation: =
IC50 (µM): 10.4

structure_smiles: COc1cc(C(=O)Nc2c(C(=O)c3ccccc3)[nH]c3ccccc23)cc(OC)c1OC
relation: >
IC50 (µM): 100

structure_smiles: COc1cccc(C(=O)c2[nH]c3ccccc3c2NC(=O)c2cc(OC)c(OC)c(OC)c2)c1
relation: =
IC50 (µM): 9.06

structure_smiles: COc1cc(C(=O)Nc2c(C(=O)c3ccc(-c4ccccc4)cc3)[nH]c3cc(C)ccc23)cc(OC)c1OC
relation: >
IC50 (µM): 100

structure_smiles: COc1cc(C(=O)Nc2c(C(=O)c3cccs3)[nH]c3ccccc23)cc(OC)c1OC
relation: =
IC50 (µM): 29.6

structure_smiles: COc1cc(C(=O)Nc2c(C(=O)c3ccc(Cl)cc3)[nH]c3cc(Cl)ccc23)cc(OC)c1OC
relation: >
IC50 (µM): 100
